Listing: Potency of selected compounds
Test Details: qHTS profiling for inhibitors of Plasmodium falciparum proliferation (AID 504749); note: potency is the fitted concentration of half-maximal effect; nearly all actives have a fitted effect of over 60% in size
Conditions: P. falciparum in erythrocytes, SYBR Green DNA, 72 h; parasite line A
Procedure: NIH National Institute of Allergy and Infectious Diseases [NIAID] NIH Chemical Genomics Center [NCGC] […] Because mature erythrocytes lack DNA, only Plasmodium-derived DNA is detected. NCGC Assay Protocol Summary: The SYBR Green viability assay was adapted from a method described previously (Plouffe et al., 2008). […] The following morning, fluorescence intensity at 485(14) nm excitation and 535(25) nm emission wavelengths was measured on an EnVision (Perkin Elmer) plate reader. […]
Results filed as inconclusive are left out. The source made the active and inactive calls. Calls come from the whole dose curve; as a rule, active = well fitted inhibition curve with a large enough effect; inconclusive = small, poorly fitted or top-dose-only effect; inactive = flat fitted curve, though single readings scatter.

Input: GET /values?readout=Potency&item= C[C@H]1[C@@H](OC(=O)CCC(=O)O)OC2OC3(C)CC[C@H]4[C@H](C)CC[C@@H]1[C@@]24OO3 (some centres undefined)
Output: 4 nM (active)

Input: Which Potency is listed for COc1cc2c(cc1O)CCN[C@@]21CS[C@H]2c3c(OC(C)=O)c(C)c4c(c3C(COC1=O)N1C2C2c3c(cc(C)c(OC)c3O)CC([C@@H]1O)N2C)OCO4 (some centres undefined) ?
Output: 0.9 nM (active)

Input: Fill blank: measured Potency of the compound NC(C(=O)O)C(O)c1ccc(O)c(O)c1 (centres undefined) is ____.
Output: 14100 nM (active)

Reference for the values: PubChem BioAssay (NCATS)
